test system: 3',5'-Cyclic AMP phosphodiesterase (PDE) from kidney; assay: 3',5'-Cyclic AMP phosphodiesterase (PDE) inhibition, rabbit kidney enzyme (Fraction II, low Km); assay type: biochemical; settings: relative to theophylline, cAMP about 1.7 × 10^-7 M, 30° C., 10 minutes, pH 7.5
assay-readout: PDE Kidney; α (I50 theophylline / I50 compound)

compound="Cc1cc(C)n2nc(SCc3cccnc3)nc2n1 [Compound 19]" value=0.00
compound="CCCNc1c(C(=O)OCC)cnc2nc(SCc3ccccc3)nn12 [Compound 39]" value=7.0
compound="CCOC(=O)c1ccc(CSc2nc3nc(C)cc(C)n3n2)o1 [Compound 21]" value=1.25
compound="CCOC(=O)C(Sc1nc2nc(C)cc(C)n2n1)C(=O)OCC [Compound 11]" value=0.00
compound="CCOC(=O)c1cnc2nc(SCc3ccccc3)nn2c1N1CCOCC1 [Compound 36]" value=2.90
compound="Cc1cc(N(C)C)n2nc(SCc3ccccc3)nc2n1 [Compound 28]" value=3.40
compound="Cc1cc(C)n2nc(SCc3ccc4ccccc4n3)nc2n1 [Compound 20]" value=0.70
compound="Cc1cc(N2CCOCC2)n2nc(SCc3ccccc3)nc2n1 [Compound 31]" value=4.80
compound="Cc1cc(C)n2nc(SCC(C)C)nc2n1 [Compound 10]" value=0.50
compound="CCCSc1nc2nc(C)cc(C)n2n1 [Compound 7]" value=1.00
compound="Cc1cc(C)n2nc(SCc3ccccc3C)nc2n1 [Compound 15]" value=4.00
compound="Cc1cc(C)n2nc(SC(C)C)nc2n1 [Compound 8]" value=1.30
compound="Cc1cc(Cl)n2nc(SCc3ccccc3)nc2n1 [Compound 25]" value=1.40
compound="Cc1cc(O)n2nc(SCc3ccccc3)nc2n1 [Compound 24]" value=0.75
compound="Cc1cc(C)n2nc(SCc3ccc(C(=O)O)cc3)nc2n1 [Compound 12]" value=0.70
compound="Cc1cc(C)n2nc(SCC3CCCO3)nc2n1 (stereo not drawn) [Compound 22]" value=0.00
compound="CCN(CC)c1cc(C)nc2nc(SCc3ccccc3)nn12 [Compound 27]" value=2.30
compound="CCOC(=O)c1cnc2nc(SCc3ccccc3)nn2c1O [Compound 34]" value=0.00
compound="Cc1cc(C)n2nc(SCCc3ccccc3)nc2n1 [Compound 23]" value=2.50
compound="Cc1cc(NN(C)C)n2nc(SCc3ccccc3)nc2n1 [Compound 33]" value=8.00
compound="Cc1cc(N2CCCCC2)n2nc(SCc3ccccc3)nc2n1 [Compound 30]" value=3.20

* * *

system: anesthetized dogs; experiment: Hemodynamic activity in anesthetized dogs; format: in vivo, dog; details: 10 mg/Kg/hr; vehicle DMSO (Saline for 44-46)
assay-readout: % change of stroke volume

molecule="CCCc1cc(CCC)n2nc(S(=O)(=O)Cc3ccc(C)cc3)nc2n1 [Compound 48]" value=+36.1%
molecule="Cc1cc(C)n2nc(SCc3ccccc3)nc2n1 [Compound 3]" value=-7%
molecule="CCCc1cc(CCC)n2nc(SCc3ccc(C)cc3)nc2n1 [Compound 43]" value=+3.8%
molecule="CCCc1cc(CCC)n2nc(SCc3ccccc3)nc2n1 [Compound 41]" value=+27%
molecule="CCCc1cc(CCC)n2nc(S(=O)(=O)Cc3ccccc3)nc2n1 [Compound 47]" value=+34.7%

* * *

tested on: 3',5'-Cyclic AMP phosphodiesterase (PDE) from kidney; experiment: 3',5'-Cyclic AMP phosphodiesterase (PDE) inhibition, rabbit kidney enzyme (Fraction II, low Km); type: biochemical; conditions: relative to theophylline, cAMP about 1.7 × 10^-7 M, 30° C., 10 minutes, pH 7.5
Kind request: treat 0.7 as inclusive, so PDE Kidney; α (I50 theophylline / I50 compound) at 0.7 or higher is YES, anything lower is NO.

compound="CSc1nc2nc(C)cc(C)n2n1 [Compound 9]" assay_system="3',5'-Cyclic AMP phosphodiesterase (PDE) from kidney" category_label=NO
compound="Cc1ccc(CSc2nc3nc(C)cc(C)n3n2)cc1 [Compound 13]" assay_system="3',5'-Cyclic AMP phosphodiesterase (PDE) from kidney" category_label=YES
compound="Cc1cc(C)n2nc(SCc3ccc(Cl)cc3)nc2n1 [Compound 4]" assay_system="3',5'-Cyclic AMP phosphodiesterase (PDE) from kidney" category_label=YES
compound="Cc1cc(N(CCO)CCO)n2nc(SCc3ccccc3)nc2n1 [Compound 29]" assay_system="3',5'-Cyclic AMP phosphodiesterase (PDE) from kidney" category_label=YES
compound="Cc1cc(C)n2nc(SCc3ccccc3)nc2n1 [Compound 3]" assay_system="3',5'-Cyclic AMP phosphodiesterase (PDE) from kidney" category_label=YES
compound="CCCNc1cc(C)nc2nc(SCc3ccccc3)nn12 [Compound 26]" assay_system="3',5'-Cyclic AMP phosphodiesterase (PDE) from kidney" category_label=YES

* * *

tested on: 3',5'-Cyclic AMP phosphodiesterase (PDE) from lung; assay: 3',5'-Cyclic AMP phosphodiesterase (PDE) inhibition, rabbit lung enzyme (Fraction II, low Km); assay type: biochemical; details: relative to theophylline, cAMP about 1.7 × 10^-7 M, 30° C., 10 minutes, pH 7.5
Kind request: treat 1 as inclusive, so PDE Lung; α (I50 theophylline / I50 compound) at 1 or higher is true (1), anything lower is false (0).

molecule="Cc1cc(C)n2nc(SCC3CCCO3)nc2n1 (centres unmarked)" category_label="false (0)"
molecule=Cc1cc(C)n2nc(SCc3ccc4ccccc4n3)nc2n1 category_label="true (1)"
molecule=Cc1cc(C)n2nc(SCc3cccnc3)nc2n1 category_label="true (1)"
molecule=Cc1cc(N2CCCCC2)n2nc(SCc3ccccc3)nc2n1 category_label="true (1)"
molecule=Cc1cccc(CSc2nc3nc(C)cc(C)n3n2)c1 category_label="true (1)"
molecule=Cc1cc(NN(C)C)n2nc(SCc3ccccc3)nc2n1 category_label="true (1)"
molecule=Cc1cc(O)n2nc(SCc3ccccc3)nc2n1 category_label="false (0)"
molecule=CCOC(=O)c1cnc2nc(SCc3ccccc3)nn2c1N1CCOCC1 category_label="true (1)"
molecule=Cc1cc(Cl)n2nc(SCc3ccccc3)nc2n1 category_label="true (1)"
molecule=Cc1cc(N2CCOCC2)n2nc(SCc3ccccc3)nc2n1 category_label="true (1)"
molecule=CCOC(=O)C(Sc1nc2nc(C)cc(C)n2n1)C(=O)OCC category_label="false (0)"
molecule=Cc1cc(C)n2nc(SCc3ccccc3C)nc2n1 category_label="true (1)"
molecule=Cc1cc(C)n2nc(SCc3ccc(Cl)cc3)nc2n1 category_label="true (1)"
molecule=CCCSc1nc2nc(C)cc(C)n2n1 category_label="false (0)"
molecule=CSc1nc2nc(C)cc(C)n2n1 category_label="false (0)"
molecule=CCN(CC)c1cc(C)nc2nc(SCc3ccccc3)nn12 category_label="true (1)"
molecule=CCCNc1cc(C)nc2nc(SCc3ccccc3)nn12 category_label="true (1)"
molecule=Cc1cc(N(CCO)CCO)n2nc(SCc3ccccc3)nc2n1 category_label="true (1)"
molecule=Cc1cc(N(C)C)n2nc(SCc3ccccc3)nc2n1 category_label="true (1)"
molecule=Cc1cc(C)n2nc(SCC(C)C)nc2n1 category_label="false (0)"
molecule=Cc1cc(C)n2nc(SCc3ccccc3)nc2n1 category_label="true (1)"
molecule=CCCNc1c(C(=O)OCC)cnc2nc(SCc3ccccc3)nn12 category_label="true (1)"
molecule=CCOC(=O)c1cnc2nc(SCc3ccccc3)nn2c1O category_label="false (0)"
molecule=Cc1cc(C)n2nc(SC(C)C)nc2n1 category_label="false (0)"
molecule=Cc1cc(C)n2nc(SCc3ccncc3)nc2n1 category_label="false (0)"
molecule=CCOC(=O)c1ccc(CSc2nc3nc(C)cc(C)n3n2)o1 category_label="true (1)"
molecule=Cc1ccc(CSc2nc3nc(C)cc(C)n3n2)cc1 category_label="true (1)"
molecule=Cc1cc(C)n2nc(SCCc3ccccc3)nc2n1 category_label="true (1)"
molecule=Cc1cc(C)n2nc(SCc3ccc(C(=O)O)cc3)nc2n1 category_label="true (1)"

* * *

% change of stroke volume reference
tested on: anesthetized dogs; assay: Hemodynamic activity in anesthetized dogs; assay type: in vivo, dog; settings: 10 mg/Kg/hr; vehicle DMSO (Saline for 44-46)
assay-readout: % change of stroke volume

molecule="CC(=O)Cc1cc(C)nc2nc(SCc3ccccc3)nn12 [Compound 51]" assay_readout="% change of stroke volume" value=+42.0%
molecule="CCCc1cc(CCC)n2nc(SCc3cccnc3)nc2n1 [Compound 46]" assay_readout="% change of stroke volume" value=+35%
molecule="CCCc1cc(CCC)n2nc(SCc3ccncc3)nc2n1 [Compound 45]" assay_readout="% change of stroke volume" value=+39%
molecule="CCCc1cc(CCC)n2nc(SCc3ccc(C(=O)O)cc3)nc2n1 [Compound 44]" assay_readout="% change of stroke volume" value=+18%
